test system: KM12 colon; experiment: NCI tumour cell line growth inhibition, 48 h
# Lookup of reported TGI keyed by entry

| Compound | Measured On | Units | Relation | TGI |
| --- | --- | --- | --- | --- |
| COc1ccc(C2CC(c3cc(Cl)c(C)cc3O)=NN2c2ccc(S(N)(=O)=O)cc2)cc1OC (stereo unspecified) | KM12 colon | µM | = | 8.77 |
| CC(C)C(=O)OCC1CCCN2CCCCC12 (stereo unspecified) | KM12 colon | µM | > | 100 |
| COc1cc(/C=N/Nc2ncnc3[nH]ncc23)ccc1O | KM12 colon | µM | > | 25 |
| Cn1cc(-c2nc3c(F)cc4[nH]ncc4c3c3c2CCCC3)c(C(F)(F)F)n1 | KM12 colon | µM | > | 100 |
| COCN1C(=O)C2CC(/C=C/C(N)=O)=CN2C(=O)c2ccccc21 (stereo unspecified) | KM12 colon | µM | > | 100 |
| CCCCc1ccc(-n2c(C)c(COC(=O)NC)c(COC(=O)NC)c2C)cc1 | KM12 colon | µM | = | 29.3 |
| ClCCC[Si]12OCCN(CCO1)CCO2 | KM12 colon | µM | > | 100 |
| N#CCN1c2ccccc2CCC1Cl (stereo unspecified) | KM12 colon | µM | > | 10 |
| CCOC(=O)CCC(C(=O)OCC)n1nnc2ccc(Nc3c(C)[n+]([O-])c4ccc(Cl)cc4[n+]3[O-])cc21 (stereo unspecified) | KM12 colon | µM | > | 100 |
| O=C1C=CC(=O)c2c(O)c(NCCCN3CCOCC3)c(Cl)c(O)c21 | KM12 colon | µM | = | 3.8 |
| CCCCNc1nc2nc[nH]c2c(=O)[nH]1 | KM12 colon | µM | > | 100 |
| COc1ccc(NC(=S)N/N=C/c2cccc(C)n2)cc1 | KM12 colon | µM | > | 100 |
| COc1ccccc1N1C(=O)/C(=C\c2cc(OC)c(OC)c(OC)c2)SC1c1ccccc1 (stereo unspecified) | KM12 colon | µM | > | 100 |
| C/C(=N\O)c1ccc2cc(Br)c3ccccc3c2c1 | KM12 colon | µM | = | 32.6 |
| Cc1nnc(N)nc1C/C=C/C(Sc1ccc(Cl)cc1)c1ccccc1 (stereo unspecified) | KM12 colon | µM | = | 15.7 |
| NC(N)=NS(=O)(=O)c1ccc(Nc2c3ccccc3nc3c(C(=O)NNCCO)cccc23)cc1 | KM12 colon | µM | = | 0.287 |
| CS(=O)(=O)N1CC(CI)c2ccc(O)cc21 (stereo unspecified) | KM12 colon | µM | = | 15 |
| CC(=O)c1sc2c(c1OC(=O)c1ccc(Cl)cc1)c(=O)n(-c1ccccc1)c(=S)n2-c1ccccc1 | KM12 colon | µM | = | 44.7 |
| O=c1[nH]cnc2c(COCCCO)c[nH]c12 | KM12 colon | µM | > | 100 |
| Nc1cc2c([nH]c[n+]2CC#CCCl)c(SCC#CCCl)n1 | KM12 colon | µM | = | 2.68 |
| O=C1NC(N/N=C/c2c[nH]c3ccccc23)=N/C1=C\c1cccs1 | KM12 colon | µM | > | 100 |
| COc1cc2c(c(OC)c1OC)-c1cccc(=O)cc1C(NC(C)=O)CC2 (stereo unspecified) | KM12 colon | µM | = | 1.75 |
| O=C(O)CC(O)(c1ccccc1C(=O)O)c1cccc2ccccc12 (stereo unspecified) | KM12 colon | µM | > | 100 |
| CN(C)CC1CCC(=C2CCCC2)C1=O (stereo unspecified) | KM12 colon | µM | = | 25.6 |
| NC(N)=N/N=C(/CC1OC(=O)c2ccccc21)c1ccc2ccccc2c1 (stereo unspecified) | KM12 colon | µM | = | 26.6 |
| Oc1ccc(-c2nn3c(CCCCCCCCc4nnc5sc(-c6ccc(O)cc6)nn45)nnc3s2)cc1 | KM12 colon | µM | > | 100 |
| N#Cc1nn(C(N)=O)c(N)c1C#N | KM12 colon | µM | > | 100 |
| CC(=O)OCC1OC(n2c(-c3ccc(C)cc3)cc(-c3ccco3)c(C#N)c2=S)C(OC(C)=O)C(OC(C)=O)C1OC(C)=O (stereo unspecified) | KM12 colon | µM | > | 100 |
| COc1cccc(C2c3cc4c(cc3OC(NNc3ccccc3)C2C)OCO4)c1O (stereo unspecified) | KM12 colon | µM | = | 18.3 |
| O=C(O)CN1CCNCCNCC1 | KM12 colon | µM | > | 100 |
| c1ccc(CSc2nc(N3CCCCC3)c3cn[nH]c3n2)cc1 | KM12 colon | µM | = | 35.4 |
| CS(=O)(=O)Nc1cc(-c2ccc3ncnc(Nc4ccc5c(cnn5Cc5cccc(F)c5)c4)c3c2)cnc1Cl | KM12 colon | µM | = | 4.25 |
| O=C(Nc1ccccc1-c1nn(CO)c(=S)n(CO)c1=O)C(F)(F)F | KM12 colon | µM | > | 100 |
| COC(=O)C(CC(=O)c1ccccc1)c1ccccc1NC(C)=O (stereo unspecified) | KM12 colon | µM | > | 100 |
| O=[N+]([O-])O | KM12 colon | µM | > | 100 |
| N#C/C(=N/Nc1nc[nH]c1C(N)=O)C(=O)Nc1ccccc1 | KM12 colon | µM | > | 100 |
| OCc1nnn2c1CCC2 | KM12 colon | µM | > | 100 |
| NCCOc1ncccc1/C=C1\c2ccccc2-c2ccc(F)cc21 | KM12 colon | µM | = | 2.98 |
| CN(C)c1ccc(/C=C/c2nc3ccccc3s2)cc1 | KM12 colon | µM | > | 100 |
| Cc1cc(-c2ncc(-c3cccnc3)cc2/C=C/c2ccccc2)cnc1-c1cccnc1 | KM12 colon | µM | > | 100 |
| CCCc1c(Cl)nc(Cl)nc1Cl | KM12 colon | µM | = | 15.8 |
| O=C(O)c1cc2ccccc2c(N=Nc2ccc(S(=O)(=O)O)cc2)c1O | KM12 colon | µM | > | 100 |
| O=C(OC1CC(n2cc(F)c(=O)[nH]c2=O)OC1CSC(=O)c1ccccc1)c1ccccc1 (stereo unspecified) | KM12 colon | µM | = | 91.2 |
| CCN(Cc1ccncc1)c1ccc(CO)c(Cl)c1 | KM12 colon | µM | > | 100 |
| C[n+]1c(-c2ccccc2)cc2/c(=C\c3ccccc3)c3ccccc3n21 | KM12 colon | µM | = | 2.18 |

###

test system: OVCAR-4 ovarian; assay: NCI tumour cell line growth inhibition, 48 h
Reported Metric: TGI (µM)

| Compound | Reported Metric | Relation | Readout Number |
| --- | --- | --- | --- |
| O=c1c2ccccc2nc2n1CCc1c-2[nH]c2ccc(Br)cc12 | TGI | > | 100 |
| CCOC(=O)CCC(C(=O)OCC)n1nnc2ccc(Nc3c(C)[n+]([O-])c4ccc(Cl)cc4[n+]3[O-])cc21 (stereo not given) | TGI | > | 100 |
| Cc1c(-c2ccccc2)c(C#N)c2nnn(-c3ccc([N+](=O)[O-])cc3)c(=O)n12 | TGI | = | 38.2 |
| COc1cc(-c2n[nH]nc2-c2ccc3c(c2)OCCO3)cc(OC)c1OC | TGI | = | 57.1 |
| C=CCCC1CCCNC1=S (stereo not given) | TGI | > | 100 |

###

Here, each record is paired with measured TGI data.
tested on: HOP-62 NSCLC; experiment: NCI tumour cell line growth inhibition, 48 h

| Compound | TGI |
| --- | --- |
| CC[C@@]1(O)C[C@H](OC2CC(N(C)C)C(OC3CC(O)C(OC4CC(O)C(O)C(C)O4)C(C)O3)C(C)O2)c2c(cc3c(c2O)C(=O)c2c(O)ccc(O)c2C3=O)[C@H]1C(=O)OC (some centres undefined) | 0.5 µM |
| Cc1ccc(-c2c(C#N)[n+](=O)c3cc(Cl)c(Cl)cc3n2[O-])cc1 | 26.7 µM |
| COc1ccc(NCc2cc(OC)c(OC)c(OC)c2)cc1 | > 74.1 µM |
| Cn1ncc2c(Sc3ccc(Cl)cc3)ncnc21 | > 100 µM |
| NC1(C(=O)O)CCCC1C(=O)O (centres undefined) | > 100 µM |
| COc1ccc(C2N(c3ccc(F)c([N+](=O)[O-])c3)C(=O)N3C(c4ccc(OC)cc4)N(c4ccc(F)c([N+](=O)[O-])c4)C(=O)N23)cc1 (centres undefined) | > 100 µM |
| CCC/C=C/C=C/C(=O)OC1C(C)C2(O)C3C=C(C)C(=O)C3CC(COC(C)=O)=CC2C2C(C)(C)C12OC(=O)C(C)C (centres undefined) | 0.0586 µM |
| Cc1c2ccccc2cc2nc3ccccc3n12 | > 10 µM |
| COc1cc(/C=N\O)cc(/C=N/O)c1O | > 100 µM |
